Ref: BindingDB's records for patent WO2022021841

Could you please report measured Ki for the items listed next?
Target: Replicase polyprotein 1ab (Severe acute respiratory syndrome coronavirus 2, UniProt P0DTD1)
Report the value in nM with no unit label.

Give its Ki value. Item: COc1ccc(OCC(=O)N2C[C@H]3[C@@H](C2C(=O)N[C@H](C=O)C[C@@H]2CCNC2=O)C3(C)C)cc1 (some centres undefined) 36

Give its Ki value. Item: CC1CNC(=O)[C@@H]1C[C@H](NC(=O)C1[C@@H]2CCC[C@H]2CN1C(=O)COc1ccc(OC(F)(F)F)cc1)C(=O)CF (some centres undefined) 23

Give its Ki value. Item: CC1(C)[C@@H]2C(C(=O)N[C@H](C=O)C[C@@H]3CCNC3=O)N(C(=O)COc3ccc(Cl)cc3Cl)C[C@@H]21 (some centres undefined) 10

Give its Ki value. Item: O=C[C@H](C[C@@H]1CCNC1=O)NC(=O)C1[C@@H]2CCC[C@H]2CN1C(=O)COc1ccc(Cl)cc1 (some centres undefined) 9
